# test.target: EBOV GP[change] (Ebola virus (EBOV), UniProt Q05320)
# assay: ELISA
Form field: EC50 (one value per entry).
experimental.readout: EC50 (ng/mL)

>>> readout_value("FVM02P (antibody, V domains shown) VH: EVQLVESGGGLVQPGGSLRLSCAASGFTGFTFSDYAFYWVRQAPGKGLEWVGFIRGKAYGGTADYAASVKGRFTISRDNSKNTAYLQMSSLKTEDSAVYYCTSQGVTVATPYHWGQGVLVTVSS VL: DIVLTQSPLSLPVTPGEPASISCRSSQSLLHSGGKTYLYWYLQKPGQSPQLLIHEVSNRASGVPDRFSGSGSGTDFTLKISRVEAEDVGVYYCMQGIQLPLTFGGGTKVEIKR")
10
>>> readout_value("FVM13 (antibody, V domains shown) VH: EVQLVQSGAEVKRPGESLKISCKTSGYTFTSSWISWVRQMPGKGLEWLGSIYPGDSDTRYNPSFQGHVTISADTSIITTHLQWSSLKASDTATYYCVKGSETWGQGVLVTVSS VL: KPMLTQPTSLSASPGASASLTCTFSGGINVAGYNILWYQQKAGSPPRYLLRYKSDSTKDQGSGVPSRFSGSKDASANTGILRISGLQSEDEADYYCAIGHSSGWIFGGGTRLTVL")
3
